System: BT-549 breast
testProtocol: NCI tumour cell line growth inhibition, 48 h
Parameter threshold = 40 µM. Response is true (1) when TGI meets or exceeds it, else false (0).

| compound | classification |
| --- | --- |
| COc1ccc(CNc2nc3cc(N)cc(N)c3nc2-c2ccccc2)cc1 | false (0) |
| Cn1/c(=N\N=C(\CNCCO)[C@@H](O)[C@@H]2OC(c3ccccc3)OC[C@H]2O)sc2ccccc21 (some centres undefined) | false (0) |
| O=C1OCc2cc3cc4c(cc3c(-c3ccc5c(c3)OCO5)c21)OCO4 (tested in a mixture with another compound) | true (1) |
| Cc1ccc(NC2=N/C(=C/c3ccccc3)C(Cl)=N2)cc1 | true (1) |
| C/C(=C\COc1c2c(cc3c1CCO3)OC1(C=C2)OC(CC/C(C)=C/COc2c3ccoc3cc3oc(=O)ccc23)C(C)(C)O1)CCC(O)C(C)(C)O (centres undefined) | true (1) |
| O=C(CCC(C(=O)c1ccccc1)c1ccccc1)c1ccccc1 (centres undefined) | true (1) |
| Nc1nc(Nc2ccccc2)sc1C(=O)c1cccs1 | false (0) |
| C=C(C)[C@@H]1CC[C@]2(CO)CC[C@]3(C)[C@H](CC[C@@H]4[C@@]5(C)CCC(NCCc6ccc(O)cc6)C(C)(C)[C@@H]5CC[C@]43C)[C@@H]12 (some centres undefined) | false (0) |

Continue with the next compound.
Tell me whether TGI is at least 40 µM here: Cc1cc(Oc2ccc3nc(COc4ccc(CC5SC(=O)NC5=O)cc4)n(C)c3c2)cc(C)c1N (centres undefined)
true (1)

###

Test system: PC-3 prostate
testProtocol: NCI tumour cell line growth inhibition, 48 h
assayMetric: GI50

Reference set (4 entries):
| molecule | targetOfAssay | GI50 |
| --- | --- | --- |
| CCc1ccc2c(c1)N(CCO)C1=C(C(=O)OC1)C2c1cccc(Cl)c1 (stereo not drawn) | PC-3 prostate | 0.687 µM |
| O=C(CCC(C(=O)c1ccccc1)c1ccccc1)c1ccccc1 (stereo not drawn) | PC-3 prostate | 7.94 µM |
| COc1ccc(-c2nc(N3CCN(C(=O)C4CCCCC4)CC3)c3c4c(sc3n2)CCCC4)cc1 | PC-3 prostate | 26.1 µM |
| CCCCCCc1nc2nc(Cl)c(Cl)nc2[nH]1 | PC-3 prostate | 4.68 µM |

// each listed molecule needs a value for GI50
1. CCOC(=O)/C(=C(/C)NCC(C)C)c1cc(O)c(O)c2c(C)cc(=O)[nH]c12
2. Cc1ccc(-c2nc(N3CCCNCC3)c3oc(-c4ccccc4)nc3n2)cc1
3. OCC1OC(n2cnc3c(Cl)nc(Cl)cc32)C(O)C1O (stereo not drawn)
4. C=C1C(=O)O[C@@H]2C1C[C@@H](O)C(=C)CC/C=C(\C)CCC[C@H](C)[C@H]2OC(C)=O (stereo partly drawn)

["11.1 µM", "1.57 µM", "> 100 µM", "6.1 µM"]

###

Tested on: SK-MEL-2 melanoma
testProtocol: NCI tumour cell line growth inhibition, 48 h
assayMetric: TGI

| compound | targetOfAssay | TGI |
| --- | --- | --- |
| COc1cccc2c1c(C1=C(c3cn(C)c4ccccc34)C(=O)NC1=O)cn2C | SK-MEL-2 melanoma | > 25 µM |
| COc1cc(N(Cc2ccc3nc(OC)c(OC)nc3c2)Cc2ccc3nc(OC)c(OC)nc3c2)cc(OC)c1OC | SK-MEL-2 melanoma | > 50 µM |

// each listed compound needs a value for TGI
1. Cc1nn(C)cc1P(=S)(c1ccccc1)c1ccccc1
2. C=CCSSCC=C
3. COc1ccc(C=C(c2ccc(OCc3ccccc3)cc2)c2ccc(OCc3ccccc3)cc2)cc1
4. COC1O[C@H]2[C@H]3[C@@H]1[C@@H](OS(=O)(=O)c1ccc(C)cc1)C(=O)N3C[C@H]2O (stereo not given in full)
5. C[C@]12CC[C@H](O)CC1=CC[C@@H]1[C@@H]2CC[C@]2(C)C(=N/O)/C(=C/c3ccc([N+](=O)[O-])cc3)C[C@@H]12

1: > 100 µM; 2: > 100 µM; 3: > 100 µM; 4: > 100 µM; 5: 15.5 µM

// each listed compound needs a value for TGI
1. Cn1c2c3ccc(Cl)cc3nc-2c(Cl)c2ccccc21
2. CCOC(=O)C(NCc1cccc(C(F)(F)F)c1)(NC(=O)CC)C(F)(F)F (stereo not given)
3. O=C(NC1C2CC3CC(C2)CC1C3)c1cc(/C=C/c2ccccc2)[nH]c(=S)n1 (stereo not given)

1. 48.2 µM
2. > 100 µM
3. > 100 µM
